I'd be grateful if you could share measured GI50 for these entries.
Tested on: SNB-75
Test: NCI tumour cell line growth inhibition, 48 h
Calls of active or inactive are those of the source. Rule as the data show it: active = GI50 up to about 1.1 µM and inactive = higher.

Fill in the blank: the reported GI50 of `O=C(Cn1ccnc1[N+](=O)[O-])c1ccc(F)cc1` is ____.
> 100 µM (inactive)

Fill in the blank: the reported GI50 of OC[C@H]1CC(c2nn[nH]n2)[C@H](O)[C@@H]1O (some centres undefined) is ____.
> 100 µM (inactive)

Fill in the blank: the reported GI50 of `COC(=O)NC(C(F)(F)F)(C(F)(F)F)P1(=O)OCCCO1` is ____.
47.6 µM (inactive)

Fill in the blank: the reported GI50 of CC12OC3CC(O1)C1(C=O)C4CCC5(C)C(c6ccc(=O)oc6)CCC5(O)C4CCC1(C3)O2 (centres undefined) is ____.
0.252 µM (active)

Fill in the blank: the reported GI50 of `COC(=O)C1=C(C)NC(C)=C(C(=O)OC)C1c1ccc(/[N+]([O-])=C/c2ccccc2)cc1` is ____.
34.9 µM (inactive)

Fill in the blank: the reported GI50 of `C=CC1(c2ccc(Br)cc2)OCCCO1` is ____.
> 100 µM (inactive)

Fill in the blank: the reported GI50 of `CC(=O)Oc1c(-c2ccccc2)oc2ccccc12` is ____.
1.57 µM (inactive)

Fill in the blank: the reported GI50 of CNC(=O)C1CCC(=O)N1CN(C(C)=O)c1ccccc1 (centres undefined) is ____.
> 100 µM (inactive)

Fill in the blank: the reported GI50 of `CCNc1nnc(CSc2nc(-c3ccccc3)c(-c3ccccc3)[nH]2)s1` is ____.
23 µM (inactive)

Fill in the blank: the reported GI50 of `CC(=O)Oc1ccc(-c2nnc(-c3ccc(OC(C)=O)cc3)nn2)cc1` is ____.
> 100 µM (inactive)

Fill in the blank: the reported GI50 of `Cc1ccc(-c2c(C#N)c(-c3ccc([N+](=O)[O-])cc3)c(C#N)c(=O)n2NS(=O)(=O)c2ccc(C)cc2)cc1` is ____.
74.5 µM (inactive)

Fill in the blank: the reported GI50 of Cc1ccc(S(=O)(=O)NC(C)C(=O)O)cc1 (centres undefined) is ____.
> 100 µM (inactive)

Fill in the blank: the reported GI50 of CCC(=O)Nc1ccc(N2C(=O)C(Cl)C2c2ccc(SC)cc2)cc1 (centres undefined) is ____.
> 100 µM (inactive)

Fill in the blank: the reported GI50 of NCCC(=O)NC(Cc1c[nH]cn1)C(=O)O (centres undefined) is ____.
> 100 µM (inactive)

Fill in the blank: the reported GI50 of `CCCCCCNC(=O)c1cnc(Cl)cn1` is ____.
21 µM (inactive)

Fill in the blank: the reported GI50 of O=C1C(=C(C(F)(F)Cl)C(F)(F)Cl)C2CCC1C2 (centres undefined) is ____.
4.3 µM (inactive)

Fill in the blank: the reported GI50 of `Cc1n[n+](CC(=O)c2ccccc2)c2sc(N)nn12` is ____.
> 100 µM (inactive)

Fill in the blank: the reported GI50 of `COc1ccc(N2CN(C)CSC2=S)cc1` is ____.
> 100 µM (inactive)

Fill in the blank: the reported GI50 of CC(=O)OC1C2CCC1C1C2N=NN1c1ccc([N+](=O)[O-])cc1 (centres undefined) is ____.
> 100 µM (inactive)

Fill in the blank: the reported GI50 of CN(C)CC1CCC/C(=C\c2ccc(OC(=O)/C=C/c3ccc(Cl)cc3)cc2)C1=O (centres undefined) is ____.
8.93 µM (inactive)

Fill in the blank: the reported GI50 of CC1CN=C(N(Cc2ccc(F)cc2)C(=O)Nc2ccc(Cl)cc2)S1 (centres undefined) is ____.
18.2 µM (inactive)

Fill in the blank: the reported GI50 of `COC(=O)C(=O)Cc1nc2ccccc2s1` is ____.
> 100 µM (inactive)

Fill in the blank: the reported GI50 of `COC(=O)/C=C(\S/C=C(/c1ccccc1)N1CCn2c(C(=O)c3ccccc3)c(C(=O)OC)c(C(=O)OC)c21)C(=O)OC` is ____.
> 10 µM (inactive)

Fill in the blank: the reported GI50 of `N/N=c1\[nH]c2ccccc2o1` is ____.
> 100 µM (inactive)

----------
Tested on: UO-31
Assay: NCI tumour cell line growth inhibition, 48 h
Calls of active or inactive are those of the source. Rule as the data show it: active = GI50 up to about 1.1 µM and inactive = higher.
I'd be grateful if you could share measured GI50 for these entries.

Fill in the blank: the reported GI50 of `CC(C)N(Cc1ccccc1)S(=O)(=O)c1nc(C(C)(C)C)n[nH]1` is ____.
> 100 µM (inactive)

Fill in the blank: the reported GI50 of OC[C@H]1CC(c2nn[nH]n2)[C@H](O)[C@@H]1O (stereo not given in full) is ____.
> 100 µM (inactive)

Fill in the blank: the reported GI50 of `COc1cc(Oc2nc3cc(F)c(F)cc3nc2-c2ccccc2)cc(OC)c1OC` is ____.
73.6 µM (inactive)

Fill in the blank: the reported GI50 of Cc1ccc(S(=O)ON2CCC(C(=O)O)(c3ccccc3)CC2)cc1 (stereo not given) is ____.
> 100 µM (inactive)

Fill in the blank: the reported GI50 of `N/N=c1\[nH]c2ccccc2o1` is ____.
93.5 µM (inactive)

Fill in the blank: the reported GI50 of `CCCC(=O)NC(Nc1ccc(S(=O)(=O)Nc2nc(C)cc(C)n2)cc1)(C(F)(F)F)C(F)(F)F` is ____.
> 100 µM (inactive)

Fill in the blank: the reported GI50 of `COc1ccc(-c2c3ccccc3c(-c3ccc(OCCCCCBr)cc3)c3ccccc23)cc1` is ____.
> 100 µM (inactive)

Fill in the blank: the reported GI50 of `Cc1c2cc[n+](C)cc2c(C)c2c1[nH]c1ccccc12` is ____.
15.8 µM (inactive)

Fill in the blank: the reported GI50 of CCCCc1ccc(Nc2nc3c(ncn3C3OC(COC(C)=O)C(OC(C)=O)C3OC(C)=O)c(=O)[nH]2)cc1 (stereo not given) is ____.
> 100 µM (inactive)

Fill in the blank: the reported GI50 of CCCCCCCCCOCC(COP(=O)([O-])OCC[N+](C)(C)C)OC (stereo not given) is ____.
> 100 µM (inactive)

----------
System: HT-29
Test: NCI tumour cell line growth inhibition, 48 h
Calls of active or inactive are those of the source. Cut-off read from the data, not from the text of the source: active = GI50 up to about 1.1 µM and inactive = higher.
Respond only with the outcome that fits, drawn from active, inactive

I'd appreciate the recorded outcome for COc1ccc2c(c1)OCC1(O)Cc3ccccc3OC21 (stereo unspecified) from this test.
inactive

I'd appreciate the recorded outcome for `O=C1CCC(c2ccc(Cl)cc2)=NN1c1nsc2ccccc12` from this test.
inactive

I'd appreciate the recorded outcome for CCN(CC)C1Oc2cc3c(cc2C(c2cc(OC)c(OC)c(OC)c2)C1C)OCO3 (stereo unspecified) from this test.
active

I'd appreciate the recorded outcome for N#CC1(C2SCC[S+]2[O-])C2=C(C(=O)c3ccccc3C2=O)N2CCCC21 (stereo unspecified) from this test.
inactive

I'd appreciate the recorded outcome for `Cc1ccc2nc(CN3CCCCC3)cc(=O)n2c1` from this test.
inactive

I'd appreciate the recorded outcome for `COC(=O)C(=C\Sc1ccccc1)/C=C/C(=O)OC(C)(C)C` from this test.
inactive

----------
Tested on: HCC 2998
Assay: NCI tumour cell line growth inhibition, 48 h
Active and inactive are the calls of the source. Cut-off read from the data, not from the text of the source: active = GI50 up to about 1.1 µM and inactive = higher.
VALUE_TYPE: GI50

Observed GI50 on HCC 2998 for `O=C1CN=C(c2ccccc2)c2ccncc2N1` , please.
> 100 µM (inactive)

Observed GI50 on HCC 2998 for `Cc1ccc2c(=O)c3ccccc3sc2c1` , please.
> 100 µM (inactive)

Observed GI50 on HCC 2998 for O=C1C(Cl)C(c2cc(Br)ccc2O)N1n1cnc2ccccc2c1=O (stereo not drawn) , please.
17.4 µM (inactive)

Observed GI50 on HCC 2998 for O=C1CNC(=O)N1 [HYDANTOIN] , please.
> 1120 µM (inactive)

Observed GI50 on HCC 2998 for `Nc1nc(O)c2c(ncn2CCO)n1` , please.
> 100 µM (inactive)

Observed GI50 on HCC 2998 for `Clc1ccc(Cl)c2[s+]snc12` , please.
> 100 µM (inactive)

Observed GI50 on HCC 2998 for `O=C1NC(=O)c2ccccc2/C1=C/c1ccc2c(c1)OCO2` , please.
14.6 µM (inactive)

Observed GI50 on HCC 2998 for `CCc1n[nH]c(=O)n1CCO` , please.
> 100 µM (inactive)

Observed GI50 on HCC 2998 for `CCCCCCCCCCCCCCCCSS(C)(=O)=O` , please.
> 53.6 µM (inactive)

Observed GI50 on HCC 2998 for ClC1(Cl)C2CCOC21n1cnc2ccccc21 (stereo not drawn) , please.
> 100 µM (inactive)

Observed GI50 on HCC 2998 for `CCOc1ccccc1NC(=O)CCc1nnc2s/c(=C\CCc3ccccc3)c(=O)n12` , please.
> 100 µM (inactive)

Observed GI50 on HCC 2998 for CC1=NN(C(=O)CC(=O)Nc2ccc(C)cc2)C(=O)C1/N=N/c1ccc(C(=O)O)cc1 (stereo not drawn) , please.
> 100 µM (inactive)

Observed GI50 on HCC 2998 for `O=C1c2ccccc2NC(=S)[C@@H]2CCCN12` , please.
> 100 µM (inactive)

Observed GI50 on HCC 2998 for `N#C/N=C(/N)NCc1ccccc1` , please.
23.4 µM (inactive)

Observed GI50 on HCC 2998 for `COC(=O)C1=C(C)NC(C)=C(C(=O)OC)C1c1ccc(/[N+]([O-])=C/c2ccccc2)cc1` , please.
> 100 µM (inactive)

Observed GI50 on HCC 2998 for `COc1cccc(/C=C2\C(=O)N(C(=O)c3ccc(NC(C)=O)cc3)N=C2C)c1` , please.
> 100 µM (inactive)

Observed GI50 on HCC 2998 for C/C(=N\O)C(CN(C)C)C(c1ccccc1)c1c(O)c2ccccc2oc1=O (stereo not drawn) , please.
> 100 µM (inactive)

Observed GI50 on HCC 2998 for `C=CCSC1=N/C(=C\c2ccc(OC)cc2)C(=O)N1CC=C` , please.
23.9 µM (inactive)
